Listing: refractive index of selected compounds
test: refractive index (Na D-line) (dimensionless); conditions: 298.15 K; 101.33 kPa; Liquid; Standard Abbe refractometry
Answer using only a numeral; do not append any unit.

CCCC[N+](C)(CCCC)CCCC.O=S(=O)([N-]S(=O)(=O)C(F)(F)F)C(F)(F)F [tributylmethylammonium bis((trifluoromethyl)sulfonyl)imide]: 1.42643
CC[S+](C)CC.O=S(=O)([N-]S(=O)(=O)C(F)(F)F)C(F)(F)F [diethylmethylsulfonium bis[(trifluoromethyl)sulfonyl]imide]: 1.42325
CC[S+](CC)CC.O=S(=O)([N-]S(=O)(=O)C(F)(F)F)C(F)(F)F [triethylsulfonium bis((trifluoromethyl)sulfonyl)imide]: 1.42632

Param item = CCCC[N+](C)(C)C.O=S(=O)([N-]S(=O)(=O)C(F)(F)F)C(F)(F)F [butyltrimethylammonium bis(trifluoromethylsulfonyl)imide] ; retrieve measured refractive index.
1.40818

---

conditions: 318.15 K; 101.33 kPa; Liquid; Cone and plate viscometry
Listing: viscosity of selected compounds
Give just the number in mPa·s; leave the unit off.

CCCC[N+](C)(C)C.O=S(=O)([N-]S(=O)(=O)C(F)(F)F)C(F)(F)F [butyltrimethylammonium bis(trifluoromethylsulfonyl)imide]: 43.2
CCCC[N+](C)(CCCC)CCCC.O=S(=O)([N-]S(=O)(=O)C(F)(F)F)C(F)(F)F [tributylmethylammonium bis((trifluoromethyl)sulfonyl)imide]: 139.6
CC[S+](C)CC.O=S(=O)([N-]S(=O)(=O)C(F)(F)F)C(F)(F)F [diethylmethylsulfonium bis[(trifluoromethyl)sulfonyl]imide]: 21

Kindly consider the entry below.
Param item = CC[S+](CC)CC.O=S(=O)([N-]S(=O)(=O)C(F)(F)F)C(F)(F)F [triethylsulfonium bis((trifluoromethyl)sulfonyl)imide] ; retrieve measured viscosity.
17.5

---

assay: refractive index (Na D-line) (dimensionless); details: 308.15 K; 101.33 kPa; Liquid; Standard Abbe refractometry
± gives the expanded uncertainty stated by the source.
Listing: refractive index of selected compounds

Example results:
CC[S+](C)CC.O=S(=O)([N-]S(=O)(=O)C(F)(F)F)C(F)(F)F [diethylmethylsulfonium bis[(trifluoromethyl)sulfonyl]imide]: 1.42026 ± 0.00037
CCCC[N+](C)(C)C.O=S(=O)([N-]S(=O)(=O)C(F)(F)F)C(F)(F)F [butyltrimethylammonium bis(trifluoromethylsulfonyl)imide]: 1.40538 ± 0.00037
CC[S+](CC)CC.O=S(=O)([N-]S(=O)(=O)C(F)(F)F)C(F)(F)F [triethylsulfonium bis((trifluoromethyl)sulfonyl)imide]: 1.42325 ± 0.00037

Kindly consider the entry below.
Param item = CCCC[N+](C)(CCCC)CCCC.O=S(=O)([N-]S(=O)(=O)C(F)(F)F)C(F)(F)F [tributylmethylammonium bis((trifluoromethyl)sulfonyl)imide] ; retrieve measured refractive index.
1.42338 ± 0.00037

---

conditions: 353.15 K; 101.33 kPa; Liquid; Cone and plate viscometry
experimental_endpoint: viscosity (mPa·s)
Give just the number in mPa·s; leave the unit off.

Example results:
CC[S+](CC)CC.O=S(=O)([N-]S(=O)(=O)C(F)(F)F)C(F)(F)F [triethylsulfonium bis((trifluoromethyl)sulfonyl)imide]: 7.7
CCCC[N+](C)(CCCC)CCCC.O=S(=O)([N-]S(=O)(=O)C(F)(F)F)C(F)(F)F [tributylmethylammonium bis((trifluoromethyl)sulfonyl)imide]: 28.3
CC[S+](C)CC.O=S(=O)([N-]S(=O)(=O)C(F)(F)F)C(F)(F)F [diethylmethylsulfonium bis[(trifluoromethyl)sulfonyl]imide]: 9

Kindly consider the entry below.
Param item = CCCC[N+](C)(C)C.O=S(=O)([N-]S(=O)(=O)C(F)(F)F)C(F)(F)F [butyltrimethylammonium bis(trifluoromethylsulfonyl)imide] ; retrieve measured viscosity.
14.7

---

settings: 298.2 K, Pendant drop shape
experimental_endpoint: surface tension liquid-gas (mN/m)
Give just the number in mN/m; leave the unit off.

Example results:
CCCC[N+](C)(CCCC)CCCC.O=S(=O)([N-]S(=O)(=O)C(F)(F)F)C(F)(F)F [tributylmethylammonium bis((trifluoromethyl)sulfonyl)imide]: 30.6
CCCC[N+](C)(C)C.O=S(=O)([N-]S(=O)(=O)C(F)(F)F)C(F)(F)F [butyltrimethylammonium bis(trifluoromethylsulfonyl)imide]: 33.2
CC[S+](CC)CC.O=S(=O)([N-]S(=O)(=O)C(F)(F)F)C(F)(F)F [triethylsulfonium bis((trifluoromethyl)sulfonyl)imide]: 35.2

Kindly consider the entry below.
Param item = CC[S+](C)CC.O=S(=O)([N-]S(=O)(=O)C(F)(F)F)C(F)(F)F [diethylmethylsulfonium bis[(trifluoromethyl)sulfonyl]imide] ; retrieve measured surface tension liquid-gas.
35.5

---

details: 338.15 K; 101.33 kPa; Liquid; Cone and plate viscometry
experimental_endpoint: viscosity (mPa·s)
Give just the number in mPa·s; leave the unit off.

CC[S+](C)CC.O=S(=O)([N-]S(=O)(=O)C(F)(F)F)C(F)(F)F [diethylmethylsulfonium bis[(trifluoromethyl)sulfonyl]imide]: 12.5
CCCC[N+](C)(CCCC)CCCC.O=S(=O)([N-]S(=O)(=O)C(F)(F)F)C(F)(F)F [tributylmethylammonium bis((trifluoromethyl)sulfonyl)imide]: 51.1
CCCC[N+](C)(C)C.O=S(=O)([N-]S(=O)(=O)C(F)(F)F)C(F)(F)F [butyltrimethylammonium bis(trifluoromethylsulfonyl)imide]: 22

Kindly consider the entry below.
Param item = CC[S+](CC)CC.O=S(=O)([N-]S(=O)(=O)C(F)(F)F)C(F)(F)F [triethylsulfonium bis((trifluoromethyl)sulfonyl)imide] ; retrieve measured viscosity.
10.5

---

Listing: surface tension liquid-gas of selected molecules
details: 303.2 K, Pendant drop shape
Give just the number in mN/m; leave the unit off.

Example results:
CCCC[N+](C)(CCCC)CCCC.O=S(=O)([N-]S(=O)(=O)C(F)(F)F)C(F)(F)F [tributylmethylammonium bis((trifluoromethyl)sulfonyl)imide]: 30.2
CCCC[N+](C)(C)C.O=S(=O)([N-]S(=O)(=O)C(F)(F)F)C(F)(F)F [butyltrimethylammonium bis(trifluoromethylsulfonyl)imide]: 33

Param item = CC[S+](C)CC.O=S(=O)([N-]S(=O)(=O)C(F)(F)F)C(F)(F)F [diethylmethylsulfonium bis[(trifluoromethyl)sulfonyl]imide] ; retrieve measured surface tension liquid-gas.
35.3

Param item = CC[S+](CC)CC.O=S(=O)([N-]S(=O)(=O)C(F)(F)F)C(F)(F)F [triethylsulfonium bis((trifluoromethyl)sulfonyl)imide] ; retrieve measured surface tension liquid-gas.
35

---

details: 338.15 K; 101.33 kPa; Liquid; Vibrating tube method
experimental_endpoint: mass density (kg/m3)
Give just the number in kg/m3; leave the unit off.

Param item = CCCC[N+](C)(C)C.O=S(=O)([N-]S(=O)(=O)C(F)(F)F)C(F)(F)F [butyltrimethylammonium bis(trifluoromethylsulfonyl)imide] ; retrieve measured mass density.
1359.5

Param item = CC[S+](CC)CC.O=S(=O)([N-]S(=O)(=O)C(F)(F)F)C(F)(F)F [triethylsulfonium bis((trifluoromethyl)sulfonyl)imide] ; retrieve measured mass density.
1424

Param item = CC[S+](C)CC.O=S(=O)([N-]S(=O)(=O)C(F)(F)F)C(F)(F)F [diethylmethylsulfonium bis[(trifluoromethyl)sulfonyl]imide] ; retrieve measured mass density.
1463.8

Param item = CCCC[N+](C)(CCCC)CCCC.O=S(=O)([N-]S(=O)(=O)C(F)(F)F)C(F)(F)F [tributylmethylammonium bis((trifluoromethyl)sulfonyl)imide] ; retrieve measured mass density.
1229.5

---

test: refractive index (Na D-line) (dimensionless); settings: 333.15 K; 101.33 kPa; Liquid; Standard Abbe refractometry
Listing: refractive index of selected compounds
Answer using only a numeral; do not append any unit.

Example results:
CCCC[N+](C)(C)C.O=S(=O)([N-]S(=O)(=O)C(F)(F)F)C(F)(F)F [butyltrimethylammonium bis(trifluoromethylsulfonyl)imide]: 1.39877
CC[S+](C)CC.O=S(=O)([N-]S(=O)(=O)C(F)(F)F)C(F)(F)F [diethylmethylsulfonium bis[(trifluoromethyl)sulfonyl]imide]: 1.41331
CCCC[N+](C)(CCCC)CCCC.O=S(=O)([N-]S(=O)(=O)C(F)(F)F)C(F)(F)F [tributylmethylammonium bis((trifluoromethyl)sulfonyl)imide]: 1.41613

Kindly consider the entry below.
Param item = CC[S+](CC)CC.O=S(=O)([N-]S(=O)(=O)C(F)(F)F)C(F)(F)F [triethylsulfonium bis((trifluoromethyl)sulfonyl)imide] ; retrieve measured refractive index.
1.41629

---

details: 313.15 K; 101.33 kPa; Liquid; Cone and plate viscometry
experimental_endpoint: viscosity (mPa·s)
Give just the number in mPa·s; leave the unit off.

Example results:
CC[S+](C)CC.O=S(=O)([N-]S(=O)(=O)C(F)(F)F)C(F)(F)F [diethylmethylsulfonium bis[(trifluoromethyl)sulfonyl]imide]: 24.4
CCCC[N+](C)(C)C.O=S(=O)([N-]S(=O)(=O)C(F)(F)F)C(F)(F)F [butyltrimethylammonium bis(trifluoromethylsulfonyl)imide]: 52.7
CCCC[N+](C)(CCCC)CCCC.O=S(=O)([N-]S(=O)(=O)C(F)(F)F)C(F)(F)F [tributylmethylammonium bis((trifluoromethyl)sulfonyl)imide]: 189.5

Param item = CC[S+](CC)CC.O=S(=O)([N-]S(=O)(=O)C(F)(F)F)C(F)(F)F [triethylsulfonium bis((trifluoromethyl)sulfonyl)imide] ; retrieve measured viscosity.
20.3
